- Experimental system: UniProt:P21452
- Sequence (P21452 whole entry): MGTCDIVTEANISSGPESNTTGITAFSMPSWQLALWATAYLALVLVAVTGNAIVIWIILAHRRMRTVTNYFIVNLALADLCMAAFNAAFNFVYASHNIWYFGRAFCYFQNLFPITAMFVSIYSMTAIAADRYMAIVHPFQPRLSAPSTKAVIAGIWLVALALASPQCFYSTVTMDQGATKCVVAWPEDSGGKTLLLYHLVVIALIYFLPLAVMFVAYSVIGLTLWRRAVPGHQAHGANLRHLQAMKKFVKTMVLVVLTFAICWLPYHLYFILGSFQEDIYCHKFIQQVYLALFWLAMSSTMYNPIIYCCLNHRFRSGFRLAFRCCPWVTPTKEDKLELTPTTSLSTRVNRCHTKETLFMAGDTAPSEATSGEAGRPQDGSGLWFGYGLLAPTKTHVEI
Property measured: pKi
Give bare numbers, as −log10 of the molar value.

pKi lookup needed for NC(=O)C1(N2CCCCC2)CCN(CCC2(c3ccc(Cl)c(Cl)c3)CN(C(=O)c3ccccc3)CCO2)CC1 (stereo not drawn) [compound α, reference compound] , thanks.
10.40
